test system: U251 CNS; assay: NCI tumour cell line growth inhibition, 48 h
Measured Quantity: TGI

Query block: // returns reported TGI for input CC(C)(C)[Si](C)(C)OCCCC#CCO
Result block: > 100 µM

Query block: // returns reported TGI for input C=CC1CC12C(=O)C1OC2(C)C2C(=O)c3c(ccc4c3ccc3ccccc34)C(=O)C12 (configuration not stated)
Result block: 87.6 µM

Query block: // returns reported TGI for input CCN(CC)CCOc1ccc(/C=C2\CC3C4CCC5=CC(=O)CC[C@]5(C)C4CC[C@]3(C)C2=O)cc1OC (some centres not stated)
Result block: 8.39 µM

Query block: // returns reported TGI for input COC(=O)CCC(=O)c1c(C)[nH]c(/C=C2\N=C(c3ccc[nH]3)C=C2OC)c1C
Result block: 3.2 µM

Query block: // returns reported TGI for input CC(ONC(=O)c1cc(C(F)(F)F)cc(C(F)(F)F)c1)C(=O)Nc1ccc(Cl)cc1 (configuration not stated)
Result block: > 50.5 µM

----------
tested on: UACC-257 melanoma; assay: NCI tumour cell line growth inhibition, 48 h
Measured Quantity: TGI

Query block: Short answer please: TGI, UACC-257 melanoma, entry O=c1[nH]c2ccc(CC(=S)N3CCOCC3)cc2s1
Result block: > 100 µM

Query block: Short answer please: TGI, UACC-257 melanoma, entry O=C1Nc2ccccc2C1Cc1ccccc1 (stereo unspecified)
Result block: > 100 µM

Query block: Short answer please: TGI, UACC-257 melanoma, entry COC(=O)CC1(CNC(=O)OCc2ccccc2)OCCO1
Result block: > 100 µM

Query block: Short answer please: TGI, UACC-257 melanoma, entry COc1ccc(C2SCC(=O)N2c2ccc(-c3ccc(-n4c(-c5ccccc5)nc5ccccc5c4=O)cc3)cc2)cc1 (stereo unspecified)
Result block: > 100 µM

Query block: Short answer please: TGI, UACC-257 melanoma, entry O=C(NO)c1coc2ccccc2c1=O
Result block: > 100 µM

Query block: Short answer please: TGI, UACC-257 melanoma, entry COc1cc(OC)c2c(c1OC)OCC(Cc1ccc(O)cc1)C2=O (stereo unspecified)
Result block: > 25 µM

----------
tested on: HCT-116 colon; test: NCI tumour cell line growth inhibition, 48 h
Quick reference for TGI among some compounds
Your answer should be a plain number; it is taken to be in µM.

Reference set (4 entries):
CCN(CC)c1ccc2c(c1)Oc1nc(N)c(C#N)c(N)c1C2Sc1ccc(SC)cc1 (stereo unspecified) :: 2.81
O=C1OCC(C#Cc2ccccc2)=C1Cl :: 1.38
CC1(c2ccc(Cl)cc2)CC(c2ccc(Cl)cc2)=C(C#N)C(=C(C#N)C#N)N1 (stereo unspecified) :: 31.7
COc1ccc(/C=C2\CSC/C(=C\c3ccc(OC)c(OC)c3OC)C2=O)c(OC)c1OC :: 39

Now let's try a different one.
Query block: // returns reported TGI for input CN1C(=O)CNC(=O)[C@H](NC(=O)c2nc3ccccc3cc2O)CSSC[C@H]1C(=O)NCCc1nc2ccccc2cc1O
Result block: 57.6

----------
Quick reference for TGI among some molecules
system: SK-MEL-2 melanoma; assay: NCI tumour cell line growth inhibition, 48 h

Reference set (6 entries):
COc1cc(-c2[nH]ccc2Cl)oc1C1=C2N=C3C=C2C(C(C)C)C1CCCCCCCC3 (stereo not given) :: 1.39 µM
CC1(O)CC2C(CC1SCCO)C2(C)C (stereo not given) :: > 100 µM
O=C1c2ccccc2-c2nc(-c3cccnc3)cc3c2c1nc1ccccc13 :: > 100 µM
Cc1ccccc1C(=O)Oc1ccc(Oc2ccccc2)cc1 :: > 100 µM
Cc1cc(NS(=O)(=O)c2ccc(NC(=O)c3cccc4c(N)c5ccccc5nc34)cc2)no1 :: 37.2 µM
O=C(NO)c1coc2ccccc2c1=O :: > 100 µM

Query block: // returns reported TGI for input CC1=CC(C)(C)N=C2SC(c3ccc(Cl)cc3)=NN12
Result block: > 100 µM

Query block: // returns reported TGI for input O=C1OC(c2ccc(O)c(-c3ccccc3)c2)(c2ccc(O)c(-c3ccccc3)c2)c2c(Cl)c(Cl)c(Cl)c(Cl)c21
Result block: > 100 µM

Query block: // returns reported TGI for input CC(C)C(=O)N[C@@H](C)C(=O)N(Cc1ccc2ccccc2c1)N=O
Result block: > 100 µM

----------
test system: NCI/ADR-RES ovarian; test: NCI tumour cell line growth inhibition, 48 h
Measured Quantity: TGI

Reference set (4 entries):
O=C1c2ccccc2-c2nc(-c3cccnc3)cc3c2c1nc1ccccc13 :: > 100 µM
CCCN(CCC)c1ccc(CO)c(C)c1 :: > 100 µM
Cc1cc2[nH]c3c(C#N)c(-c4ccccc4)c(N=Nc4cccc(C(F)(F)F)c4)c(=O)n3c2cc1C :: > 100 µM
CN(C)CCNc1ccc([N+](=O)[O-])c2nc3ccccc3c(N)c12 :: 2.45 µM

Query block: // returns reported TGI for input O=C1/C(=C/c2ccccc2Cl)N=C(c2ccccc2)N1Cc1ccco1
Result block: > 100 µM

----------
Quick reference for GI50 among some compounds
test system: COLO 205 colon; assay: NCI tumour cell line growth inhibition, 48 h

Reference set (5 entries):
CC(C)(C)c1ccc([I+]c2ccc(C(C)(C)C)cc2)cc1 :: 1.06 µM
CCOC(=O)CC1(O)C=CC(=O)C=C1 :: 2.59 mg/L
COc1cc(CSc2nc3ccc(C)cc3c(=O)n2Cc2ccccc2)cc(OC)c1OC :: 1.05 µM
O=C1OCC(C#Cc2ccccc2)=C1Cl :: 2.33 µM
COc1ccc2c(c1)c(C1(c3cn(C)c4ccc(OC)cc34)C(=O)Nc3ccc(F)cc31)cn2C :: 2.62 µM

Query block: // returns reported GI50 for input C(=C1c2ccccc2-c2ccccc21)c1ccccn1
Result block: 8.56 µM

Query block: // returns reported GI50 for input CCCN(CCC)c1ccc(CO)c(C)c1
Result block: 19.4 µM

Query block: // returns reported GI50 for input CS(=O)(=O)CCNCc1ccc(-c2ccc3ncnc(Nc4ccc(OCc5cccc(C(F)(F)F)c5)cc4)c3c2)o1
Result block: 6.83 µM

Query block: // returns reported GI50 for input Cn1c(COC(=O)N2CCCCC2)nc2c(N3CCOCC3)nc(-c3ccccc3)nc21
Result block: 1.03 µM

Query block: // returns reported GI50 for input O=C(COc1cccc(/C=C2\COc3ccccc3C2=O)c1)Nc1nccs1
Result block: 2.26 µM

Query block: // returns reported GI50 for input CCC[C@H](N[C@@H]1CCc2cc(F)cc(F)c2C1)C(=O)Nc1cn(C(C)(C)CNCC(C)(C)C)cn1
Result block: 12.5 µM

Query block: // returns reported GI50 for input CCCCC(=O)N/N=C/c1cc(I)cc(I)c1O
Result block: 3.59 µM

Query block: // returns reported GI50 for input O=C1/C(=C/c2ccccc2Cl)N=C(c2ccccc2)N1Cc1ccco1
Result block: 51.4 µM

Query block: // returns reported GI50 for input C#C[C@]1(O)CC[C@H]2[C@@H]3CC=C4c5sc(N=C(N)N)nc5CC[C@]4(C)[C@H]3CC[C@@]21C
Result block: 0.667 µM

Query block: // returns reported GI50 for input CC(=O)OC1COC(S[As](C)C)C(OC(C)=O)C1OC(C)=O (configuration not stated)
Result block: 0.575 µM

Query block: // returns reported GI50 for input COc1ccc(-c2n[nH]nc2-c2csc3ccccc23)cc1OC
Result block: 2.82 µM

Query block: // returns reported GI50 for input CCC[CH2][Sn]([CH2]CCC)([O]C(=O)c1cccc(F)c1)[O]C(=O)c1cccc(F)c1
Result block: 0.852 µM

----------
Quick reference for TGI among some compounds
system: A498 renal; assay: NCI tumour cell line growth inhibition, 48 h

Cn1c(COC(=O)N2CCCCC2)nc2c(N3CCOCC3)nc(-c3ccccc3)nc21 :: 2.69 µM
CC(=O)[O-].CC(=O)[O-].O=C(N/N=C/c1cc(Cl)cc(Cl)c1[OH2+])c1ccncc1.[Co+2] :: > 100 µM

Query block: // returns reported TGI for input CCCNCc1nc2ccc(Br)cc2c(=O)n1CCC
Result block: 32 µM

Query block: // returns reported TGI for input CCc1c2c(nc3cc4c(cc13)OCO4)-c1cc3c(c(=O)n1C2)COC(=O)[C@@]3(CC)OC(=O)CN
Result block: 0.166 µM

Query block: // returns reported TGI for input CO[C@@H]1[C@@H](OC2OC(C)C(OC3CC(C)(O)C(OC(=O)CC(C)C)C(C)O3)C(N(C)C)C2O)[C@@H](CC=O)C[C@@H](C)C(=O)/C=C/C2O[C@H]2C[C@@H](C)OC(=O)C[C@H]1OC(C)=O (stereo partly drawn)
Result block: 52 µM

Query block: // returns reported TGI for input CCCN1C(=O)CCC2=C1CCc1c2ccc(Cl)c1Cl
Result block: 33.2 µM

Query block: // returns reported TGI for input COCCOC(=O)C1=C(C)NC2=C(C(=O)CC(c3ccccc3OC)C2)C1c1cccc(O)c1 (stereo not drawn)
Result block: 25.9 µM

Query block: // returns reported TGI for input CC(=O)O[C@H]1C[C@]2(C)C(CCC3O[C@@]32C)[C@@]2(CC(c3ccoc3)OC2O)[C@@H]1C (stereo partly drawn)
Result block: > 100 µM
